assayText: Solubility in aqueous HEPES buffer by HPLC (Example 33)
Format: physicochemical
conditionParameters: kinetic from dmso stock
reportedEndpoint: solubility

CCc1c(N)cc(Cl)c(CC)c1NC(=O)N(Cc1ccc(OC)cc1)c1ccc(C(C)C)cc1 [compound 31] yielded solubility of 2 µM

CCc1c(N)cc(Cl)c(CC)c1NC(=O)N(Cc1ccc(Cl)cc1)c1ccc(CC(F)(F)F)cc1 [compound 103] yielded solubility of 7 µM

CCc1c(N)cc(Cl)c(CC)c1NC(=O)N(Cc1ccc(Cl)cc1)c1ccc(OC)c2cccnc12 [compound 125] yielded solubility of 4 µM

CCc1ccc(N(C(=O)Nc2c(CC)c(N)cc(Cl)c2CC)[C@@H](C)c2ccc(Cl)cc2)cc1 [compound 80] yielded solubility of 4 µM

CCc1ccc(N(C(=O)Nc2c(CC)c(N)cc(Cl)c2CC)C(C)c2ccc3c(c2)ncn3C)cc1 (stereo not drawn) [compound 122] yielded solubility of 29 µM

CCc1ccc(N(Cc2ccc(C)nc2)C(=O)Nc2c(CC)c(N)cc(Cl)c2CC)cc1 [compound 106] yielded solubility of 83 µM

###

experimentalTarget: human C5a receptor (CD88) (Homo sapiens, UniProt P21730)
Construct: expressed in transfected cells; host or cells: rat basophilic leukemia (RBL) cells, stably transfected
Sequence (P21730 1-350): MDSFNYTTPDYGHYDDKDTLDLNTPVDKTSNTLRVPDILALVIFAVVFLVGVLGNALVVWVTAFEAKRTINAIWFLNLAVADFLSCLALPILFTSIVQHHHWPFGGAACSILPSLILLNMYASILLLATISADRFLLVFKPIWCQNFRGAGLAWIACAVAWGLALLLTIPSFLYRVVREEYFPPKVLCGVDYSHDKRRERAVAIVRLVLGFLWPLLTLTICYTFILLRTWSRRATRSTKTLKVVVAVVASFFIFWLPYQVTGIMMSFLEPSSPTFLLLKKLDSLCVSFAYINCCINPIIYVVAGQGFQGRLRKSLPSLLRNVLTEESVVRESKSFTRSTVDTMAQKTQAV
assayText: C5a induced enzyme (glucosaminidase) release assay in RBL cells expressing the human C5a receptor (Example 28)
Type: cell-based
conditionParameters: inhibition of C5a induced enzyme release, RBL cells with human C5aR; read-out: Activity-range (antagonistic activity, IC50 enzyme release)
reportedEndpoint: IC50

Cc1ccc(CN(Cc2ccccc2)C(=O)c2ccccc2-n2cccc2)cc1 [Compound 8, reference compound] yielded IC50 of 200 to 5000 nM

CCc1ccc(N)c(CC)c1NC(=O)N(c1ccc(C(C)C)cc1)[C@@H](C)c1ccc(OC)cc1 [compound 71] yielded IC50 of 60 to 200 nM

CC(C)c1ccc(N(Cc2ccc(N(C)C)cc2)C(=O)Nc2c(C(C)C)cccc2C(C)C)cc1 [Compound 11, reference compound] yielded IC50 of 200 to 5000 nM

CCc1c(Cl)cc(NCC(=O)OC(C)(C)C)c(CC)c1NC(=O)N(Cc1ccc(OC)cc1)c1ccc(C(C)C)cc1 [compound 45] yielded IC50 of 60 to 200 nM

CCc1ccc(N(C(=O)Nc2c(CC)c(N)cc(Cl)c2CC)C2CCc3cc(Cl)ccc32)cc1 (stereo not shown) [compound 104] yielded IC50 of 60 to 200 nM

CCc1c(N)cc(Cl)c(CC)c1NC(=O)N(c1ccc(C(C)C)cc1)[C@@H]1CCCc2ccccc21 [compound 41] yielded IC50 of 200 to 5000 nM

CCc1c(N)cc(Cl)c(CC)c1NC(=O)N(Cc1ccc(Cl)cc1)c1ccc(N(C)C)cc1 [compound 127] yielded IC50 of 200 to 5000 nM

###

experimentalTarget: human C5a receptor (CD88) (Homo sapiens)
Construct: expressed in transfected cells; host or cells: rat basophilic leukemia (RBL) cells, stably transfected
assayText: C5a induced enzyme (glucosaminidase) release assay in RBL cells expressing the human C5a receptor (Example 28)
Type: cell-based
conditionParameters: inhibition of C5a induced enzyme release, RBL cells with human C5aR; read-out: Activity-range (antagonistic activity, IC50 enzyme release)
For each entry below, report its IC50 value.

CCc1c(N)cc(Cl)c(CC)c1NC(=O)N(Cc1ccc(S(C)(=O)=O)cc1)c1ccc(C(C)C)cc1 [compound 64] yielded IC50 of 200 to 5000 nM

CCc1ccc(N)c(CC)c1NC(=O)N(Cc1ccc2c(c1)CCO2)c1ccc(C(C)C)cc1 [compound 67] yielded IC50 of 200 to 5000 nM

CCc1ccc(N(Cc2ccc(C#N)cc2)C(=O)Nc2c(CC)c(N)cc(Cl)c2CC)cc1 [compound 113] yielded IC50 of 200 to 5000 nM

CCc1c(N)cc(Cl)c(CC)c1NC(=O)N(Cc1ccc(OC(F)(F)F)cc1)c1ccc(C(C)C)cc1 [compound 33] yielded IC50 of 200 to 5000 nM

CCc1c(Cl)cc(NCc2ccco2)c(CC)c1NC(=O)N(Cc1ccc(OC)cc1)c1ccc(C(C)C)cc1 [compound 36] yielded IC50 of 200 to 5000 nM

CCc1ccc(N(Cc2ccc(C)nc2)C(=O)Nc2c(CC)c(N)cc(Cl)c2CC)cc1 [compound 106] yielded IC50 of 60 to 200 nM

CCc1c(N)cc(Cl)c(CC)c1NC(=O)N(c1ccc(C(C)C)cc1)[C@H](C)c1ccc(C)cc1 [compound 57] yielded IC50 of 200 to 5000 nM

###

experimentalTarget: human C5a receptor (CD88) (Homo sapiens, UniProt P21730)
Construct: expressed in transfected cells; host or cells: rat basophilic leukemia (RBL) cells, stably transfected
assayText: C5a induced enzyme (glucosaminidase) release assay in RBL cells expressing the human C5a receptor (Example 28)
Assay type: cell-based
conditionParameters: inhibition of C5a induced enzyme release, RBL cells with human C5aR; read-out: Activity-range (antagonistic activity, IC50 enzyme release)
pIC50: −log10 of the molar value.
reportedEndpoint: pIC50

Simply: `CCc1c(N)cc(Cl)c(CC)c1NC(=O)N(Cc1ccc(C)nc1)c1ccc(CC(F)(F)F)cc1` , human C5a receptor (CD88) (Homo sapiens, UniProt P21730), pIC50 = 6.70 to 7.22

Simply: `CCc1c(N)cc(Cl)c(CC)c1NC(=O)N(c1ccc(SC)cc1)[C@@H](C)c1ccc(Cl)cc1` , human C5a receptor (CD88) (Homo sapiens, UniProt P21730), pIC50 = 6.70 to 7.22

Simply: `CCc1c(N)cc(Cl)c(CC)c1NC(=O)N(Cc1ccc(Cl)cc1)c1ccc(OC)c2nc(C)c(C)nc12` , human C5a receptor (CD88) (Homo sapiens, UniProt P21730), pIC50 = 5.30 to 6.70

Simply: `CCc1c(N)cc(Cl)c(CC)c1NC(=O)N(c1ccc(OC)c(F)c1)[C@@H](C)c1ccc(Cl)cc1` , human C5a receptor (CD88) (Homo sapiens, UniProt P21730), pIC50 = > 7.22

Simply: `CCc1ccc(N)c(CC)c1NC(=O)N(CC1CCCCC1)c1ccc(C(C)C)cc1` , human C5a receptor (CD88) (Homo sapiens, UniProt P21730), pIC50 = 5.30 to 6.70

Simply: `CCc1ccc(N)c(CC)c1NC(=O)N(Cc1ccc(Cl)cc1)c1ccc(NC)cc1` , human C5a receptor (CD88) (Homo sapiens, UniProt P21730), pIC50 = 6.70 to 7.22

Simply: `CCc1ccc(N(C(=O)Nc2c(C(C)(C)C)ccc(N)c2C)[C@@H](C)c2ccc(Cl)cc2)cc1` , human C5a receptor (CD88) (Homo sapiens, UniProt P21730), pIC50 = 5.30 to 6.70

Simply: `CCc1c(N)cc(Cl)c(CC)c1NC(=O)N(Cc1ccc(Cl)cc1)c1ccc(NC(C)=O)cc1` , human C5a receptor (CD88) (Homo sapiens, UniProt P21730), pIC50 = 5.30 to 6.70

Simply: `CCc1ccc(N(Cc2ccc(F)cc2)C(=O)Nc2c(CC)c(N)cc(Cl)c2CC)cc1` , human C5a receptor (CD88) (Homo sapiens, UniProt P21730), pIC50 = 6.70 to 7.22

Simply: `COc1ccc(CN(C(=O)Nc2c(C)ccc3c2CCCN3)c2ccc(C(C)C)cc2)cc1` , human C5a receptor (CD88) (Homo sapiens, UniProt P21730), pIC50 = < 5.30

Simply: `CCNc1ccc(N(Cc2ccc(Cl)cc2)C(=O)Nc2c(CC)c(N)cc(Cl)c2CC)cc1` , human C5a receptor (CD88) (Homo sapiens, UniProt P21730), pIC50 = > 7.22

Simply: CCc1c(N)cc(Cl)c(CC)c1NC(=O)N(c1ccc(C(C)C)cc1)C1CCc2ccccc21 (stereo not shown) , human C5a receptor (CD88) (Homo sapiens, UniProt P21730), pIC50 = 5.30 to 6.70

Simply: `CCc1ccc(N)c(CC)c1NC(=O)N(CCc1ccccc1)c1ccc(C(C)C)cc1` , human C5a receptor (CD88) (Homo sapiens, UniProt P21730), pIC50 = 5.30 to 6.70

Simply: `CCc1c(N)cc(Cl)c(CC)c1NC(=O)N(Cc1ccc(C)nc1)c1ccc(OC)cc1F` , human C5a receptor (CD88) (Homo sapiens, UniProt P21730), pIC50 = 5.30 to 6.70

Simply: `CCc1c(N)cc(Cl)c(CC)c1NC(=O)N(c1ccc(C(C)C)cc1)[C@@H](C)c1ccc(Cl)cc1` , human C5a receptor (CD88) (Homo sapiens, UniProt P21730), pIC50 = > 7.22

Simply: `CCc1ccc(NCC(N)=O)c(CC)c1NC(=O)N(Cc1ccc(OC)cc1)c1ccc(C(C)C)cc1` , human C5a receptor (CD88) (Homo sapiens, UniProt P21730), pIC50 = 5.30 to 6.70
